Measured pIC50 values are reported for all entries that follow.
# MEASUREMENT_TARGET: 6-phosphofructo-2-kinase/fructose-2,6-bisphosphatase 3 (Homo sapiens, UniProt Q16875)
# Sequence (Q16875 whole entry): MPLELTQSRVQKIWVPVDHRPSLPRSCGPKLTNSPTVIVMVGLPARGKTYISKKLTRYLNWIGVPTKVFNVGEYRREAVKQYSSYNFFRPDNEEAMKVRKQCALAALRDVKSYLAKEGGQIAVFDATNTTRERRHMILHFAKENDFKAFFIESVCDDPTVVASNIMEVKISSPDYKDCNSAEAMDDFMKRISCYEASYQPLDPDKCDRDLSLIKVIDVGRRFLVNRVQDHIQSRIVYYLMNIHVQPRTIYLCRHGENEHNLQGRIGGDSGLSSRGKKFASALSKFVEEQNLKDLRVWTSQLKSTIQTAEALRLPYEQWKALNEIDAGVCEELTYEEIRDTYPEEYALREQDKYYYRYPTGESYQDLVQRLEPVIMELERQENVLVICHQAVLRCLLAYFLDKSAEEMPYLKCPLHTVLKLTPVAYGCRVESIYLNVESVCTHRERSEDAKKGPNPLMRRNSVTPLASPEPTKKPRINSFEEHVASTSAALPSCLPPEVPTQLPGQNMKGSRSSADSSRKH
# METHOD_NOTES: Inhibition of iPFK2 (unknown origin) assessed as reduction in enzyme-mediated fructose-6-phosphate phosphorylation by measuring ATP consumption incubated for 3 hrs by luciferase-luciferin-coupled chemiluminescence assay
pIC50: −log10 of the molar value.

Check the records and state pIC50 for Cc1nc(N[C@@H]2CCCc3ccccc32)cc(-c2cccc3[nH]ccc23)n1
< 6.00

Tell me pIC50 reported for Cc1nc(NC(C)c2cccc(-c3ccc(F)nc3C)c2)cc(-c2ccc3ncsc3c2)n1 (stereo not given)
6.30

Give reported pIC50 value for Cc1nc(N[C@@H]2CCCc3ccccc32)cc(-c2cn[nH]c2)n1
< 6.00

---
For the compound COc1ccc(-c2cc(NC(C)c3cccc(-c4cnn(C)c4)c3)nc(C)n2)cc1 (stereo not given) , give its reported pIC50.
6.30

Fill in pIC50 for record CC(=O)N1CCOc2ccc(-c3cc(N[C@@H]4CCCc5ccccc54)nc(C)n3)cc21
< 6.00

Given Cc1nc(N[C@@H]2CCCc3ccccc32)cc(-c2ccc3c(c2)NCC3)n1 , respond with its pIC50.
< 6.00

Input COC(=O)CNc1cccc(C(C)Nc2cc(-c3cccc(OC)c3)nc(C)n2)c1 (stereo not given) , output reported pIC50.
< 6.00

Dear colleague, please send me the reported pIC50 for Cc1nc(NC(C)c2cccc(-c3ccsc3)c2)cc(-c2ccc3occ(C)c3c2)n1 (stereo not given) when you can.
< 6.00

Give pIC50 for Cc1ccc([C@H](C)Nc2cc(-c3ccc4occ(C)c4c3)nc(C)n2)cc1
6.30

Please report pIC50 for the following compound: CCc1coc2ccc(-c3cc(N[C@@H](C)c4cccc(Br)c4)nc(C)n3)cc12
< 6.00

----------
# MEASUREMENT_TARGET: 6-phosphofructo-2-kinase/fructose-2,6-bisphosphatase 3 (Homo sapiens, UniProt Q16875)
# METHOD_NOTES: Inhibition of iPFK2 (unknown origin) assessed as reduction in enzyme-mediated fructose-6-phosphate phosphorylation by measuring ATP consumption incubated for 3 hrs by luciferase-luciferin-coupled chemiluminescence assay
READOUT_LABEL: IC50 (µM)

System 6-phosphofructo-2-kinase/fructose-2,6-bisphosphatase 3 (Homo sapiens, UniProt Q16875). Read-out IC50. Item Cc1nc(NC(C)c2cccc(OCC#N)c2)cc(-c2ccc3ccn(C)c3c2)n1 (stereo not given) . Report value.
0.5

GET IC50 where system = 6-phosphofructo-2-kinase/fructose-2,6-bisphosphatase 3 (Homo sapiens, UniProt Q16875) and item = COc1cc(-c2cc(NC(C)c3cccc(OCC(N)=O)c3)nc(C)n2)ccc1C (stereo not given)
0.5

Using 6-phosphofructo-2-kinase/fructose-2,6-bisphosphatase 3 (Homo sapiens, UniProt Q16875) as the test system, report measured IC50 of Cc1nc(NC(C)c2cccc(OCC(=O)NC3CCCCC3)c2)cc(-c2ccc3ncsc3c2)n1 (stereo not given) .
0.5

Lab note: 6-phosphofructo-2-kinase/fructose-2,6-bisphosphatase 3 (Homo sapiens, UniProt Q16875) assay, enter IC50 for COc1ccc(F)c(CNc2cc(-c3ccc4ncsc4c3)nc(C)n2)c1 here
0.5

Please respond with reported IC50 (system 6-phosphofructo-2-kinase/fructose-2,6-bisphosphatase 3 (Homo sapiens, UniProt Q16875)) for Cc1nc(NC(C)c2cccc(-c3cnn(C)c3)c2)cc(-c2ccc(Cl)cc2Cl)n1 (stereo not given) .
0.5

Give measured IC50 for Cc1nc(N[C@@H]2CCCc3ccccc32)cc(-c2ccc3c(c2)NCCO3)n1 (6-phosphofructo-2-kinase/fructose-2,6-bisphosphatase 3 (Homo sapiens, UniProt Q16875)).
0.5

Give reported IC50 for Cc1nc(N[C@@H]2CCCc3ccccc32)cc(-c2ccc3cnn(C)c3c2)n1 (6-phosphofructo-2-kinase/fructose-2,6-bisphosphatase 3 (Homo sapiens, UniProt Q16875))
0.5

Retrieve IC50 on 6-phosphofructo-2-kinase/fructose-2,6-bisphosphatase 3 (Homo sapiens, UniProt Q16875); query Cc1nc(NC(C)c2cccc(OCC3CCNCC3)c2)cc(-c2ccc3ncsc3c2)n1 (stereo not given)
0.5

Please look at Cc1nc(NC(C)c2cccc(OCC(=O)NCC(C)O)c2)cc(-c2ccc3ncsc3c2)n1 (stereo not given) and tell me its recorded IC50 on 6-phosphofructo-2-kinase/fructose-2,6-bisphosphatase 3 (Homo sapiens, UniProt Q16875).
0.5

State measured IC50 of the compound COc1cccc([C@H](C)Nc2cc(-c3ccc(C)c(OC)c3)nc(C)n2)c1 with 6-phosphofructo-2-kinase/fructose-2,6-bisphosphatase 3 (Homo sapiens, UniProt Q16875).
0.5

// fetch IC50; item: Cc1nc(NC(C)c2cccc(OCc3cc(C)on3)c2)cc(-c2ccc3ncsc3c2)n1 (stereo not given) ; system: 6-phosphofructo-2-kinase/fructose-2,6-bisphosphatase 3 (Homo sapiens, UniProt Q16875)
0.5

Using 6-phosphofructo-2-kinase/fructose-2,6-bisphosphatase 3 (Homo sapiens, UniProt Q16875) as the test system, report measured IC50 of Cc1nc(NC(C)c2cccc(OCc3noc(C)n3)c2)cc(-c2ccc3ncsc3c2)n1 (stereo not given) .
0.5

Look up and report IC50, with 6-phosphofructo-2-kinase/fructose-2,6-bisphosphatase 3 (Homo sapiens, UniProt Q16875) as system, for COc1cccc(-c2cc(NC3CCc4ccccc43)nc(C)n2)c1Cl (stereo not given)
0.5

State IC50 on 6-phosphofructo-2-kinase/fructose-2,6-bisphosphatase 3 (Homo sapiens, UniProt Q16875). Entry: Cc1nc(NC(C)c2cccc(OCc3csc(C)n3)c2)cc(-c2ccc3ncsc3c2)n1 (stereo not given)
0.5

Fill in: IC50 on 6-phosphofructo-2-kinase/fructose-2,6-bisphosphatase 3 (Homo sapiens, UniProt Q16875), entry Cc1nc(NC(C)c2cccc(OC(C)(C)C(N)=O)c2)cc(-c2ccc3ncsc3c2)n1 (stereo not given)
0.5

Param request: IC50 | system 6-phosphofructo-2-kinase/fructose-2,6-bisphosphatase 3 (Homo sapiens, UniProt Q16875) | item Cc1nc(NC(C)c2cccc(-c3cnn(C)c3)c2)cc(-c2ccc3c(c2)CCO3)n1 (stereo not given)
0.5

----------
Quick reference for IC50 among some molecules
# MEASUREMENT_TARGET: 6-phosphofructo-2-kinase/fructose-2,6-bisphosphatase 3 (Homo sapiens)
# METHOD_NOTES: Inhibition of iPFK2 (unknown origin) assessed as reduction in enzyme-mediated fructose-6-phosphate phosphorylation by measuring ATP consumption incubated for 3 hrs by luciferase-luciferin-coupled chemiluminescence assay

// worked examples, IC50 included
Read the entry COc1ccc(Cl)c(-c2cc(N[C@@H]3CCCc4ccccc43)nc(C)n2)c1 and write its reported IC50.
> 1000 nM

Tell me its IC50 given CCn1cnc2ccc(-c3cc(N[C@@H]4CCCc5ccccc54)nc(C)n3)cc21 as the entry.
> 1000 nM

More entries:
Answer with the recorded IC50 of Cc1nc(N[C@@H]2CCCc3ccccc32)cc(-c2ccc3c(c2)OCCN3C)n1 only.
> 1000 nM

Please supply the value of reported IC50 for the item COc1cccc([C@H](C)Nc2cc(-c3ccc4c(ccn4C)c3)nc(C)n2)c1
> 1000 nM

Please give measured IC50 of the following entry: CCC(C)Nc1cc(-c2ccc3ncsc3c2)nc(C)n1 (stereo not given)
> 1000 nM

Using known records, supply IC50 for Cc1nc(NC(C)c2cccc(-c3cnn(C)c3)c2)cc(-c2cccc(O)c2)n1 (stereo not given)
500 nM

Provide one value: measured IC50 of Cc1nc(NC(C)c2cccc(OCC3CCCN(C(=O)OC(C)(C)C)C3)c2)cc(-c2ccc3occ(C)c3c2)n1 (stereo not given)
> 1000 nM

Using known records, supply IC50 for Cc1nc(N[C@@H]2CCCc3ccccc32)cc(-c2ccc3cn[nH]c3c2)n1
> 1000 nM

State its IC50: Cc1nc(NCc2ccccc2F)cc(-c2ccc3ncsc3c2)n1
500 nM

Give IC50 for COc1ccc2c(c1)C(Nc1cc(-c3ccc4ncsc4c3)nc(C)n1)CCC2 (stereo not given)
> 1000 nM

Please give measured IC50 of the following entry: Cc1nc(NC(C)c2cccc(OCC(=O)NCCN(C)C)c2)cc(-c2ccc3ncsc3c2)n1 (stereo not given)
500 nM

Given C#CCNS(=O)(=O)c1cccc(C(C)Nc2cc(-c3ccc4ncsc4c3)nc(C)n2)c1 (stereo not given) , respond with its IC50.
500 nM

Report measured IC50; entry is COc1cccc(-c2cc(NC(C)c3cccc(S(=O)(=O)NCC(=O)O)c3)nc(C)n2)c1 (stereo not given)
> 1000 nM

Retrieve IC50 measured for Cc1nc(NC(C)c2ccc(F)c(-c3cnn(C)c3)c2)cc(-c2ccc3ncsc3c2)n1 (stereo not given) and print it.
> 1000 nM

Supply IC50 value. Item: COc1cccc([C@H](C)Nc2cc(N[C@@H]3CCCc4ccccc43)nc(C)n2)c1
> 1000 nM

State, in one line, measured IC50 of Cc1nc(NC(C)c2cccc(NC(=O)c3ccn[nH]3)c2)cc(-c2ccc3ncsc3c2)n1 (stereo not given)
> 1000 nM

Note IC50 for the molecule shown: Cc1nc(NC(C)c2cccc(NS(=O)(=O)c3cn(C)cn3)c2)cc(-c2ccc3ncsc3c2)n1 (stereo not given)
> 1000 nM

Please supply the value of reported IC50 for the item Cc1nc(N[C@@H]2CCCc3ccccc32)cc(-c2cccc3c2ccn3C)n1
> 1000 nM

Respond only with IC50 recorded for COc1cccc(-c2cc(N[C@H]3CCCc4ccccc43)nc(C)n2)c1
> 1000 nM

Answer with reported IC50 of COc1cccc(-c2cc(N[C@@H]3CCCc4ccccc43)nc(C)n2)c1Cl
500 nM

Hey, just so you know, these numbers are from ChEMBL document CHEMBL3727358.
